- TEST SYSTEM: recombinant autotaxin (Homo sapiens, UniProt Q13822)
- Construct: made in house; host or cells: Hi5 insect cells (baculovirus)
- ASSAY NOTES: Autotaxin test (enzyme test), Amplex Red
- Type: biochemical
- TEST CONTEXT: Autotaxin inhibition (enzyme test), TABLE 1 (A compounds); substrate LPC 75 μM
pIC50: −log10 of the molar value.
PROPERTY LABEL: pIC50

Please review the following examples before continuing.
>>> df
                           structure_smiles  observed_result
0  COc1ccc(Cl)cc1NC(=O)CN1CCc2nc3ccccc3c(C(=O)N3CCNCC3)c2C1     6.00 to 7.00
1  O=C(CN1CCc2nc3ccccc3c(C(=O)N3CCOCC3)c2C1)Nc1cc(Br)cc2ccoc12     6.00 to 7.00
2  COc1ccc(Cl)cc1NC(=O)CN1CCc2nc3ccccc3c(C(=O)N3CCOCC3)c2C1           > 7.00
3  CCc1ccc2c(C(=O)N3CCOCC3)c3c(nc2c1)CCN(CC(=O)Nc1cc(Cl)ccc1OC)C3     6.00 to 7.00
4  COc1ccc(Cl)cc1NC(=O)CN1CCc2nc3ccccc3c(C(=O)N3CCCN(Cc4ccccc4)CC3)c2C1     6.00 to 7.00

Hey, recombinant autotaxin (Homo sapiens, UniProt Q13822) data for COc1ccc(Cl)cc1NC(=O)CN1CCc2nc3ccccc3c(C(=O)N3CCN(C)CC3)c2C1 : pIC50 came out at > 7.00

Given the molecule O=C(CN1CCc2nc3ccccc3c(C(=O)N3CCN(CCO)CC3)c2C1)Nc1cc(Cl)ccc1Cl and test system recombinant autotaxin (Homo sapiens, UniProt Q13822), the measured pIC50 is 6.00 to 7.00

For CCOc1ncc(Cl)cc1NC(=O)CN1CCc2nc3ccccc3c(C(=O)N3CCOCC3)c2C1 on recombinant autotaxin (Homo sapiens, UniProt Q13822), measured pIC50 was < 6.00
